These measurements were taken from patent US20230096028A1.

Exercise: state measured IC50 for each of the compounds provided.
# Test system: PC-9 cells (EGFR Ex19Del)
# method description: Potency Assay: pERK (SOS1 pERK IC50 Assay, AlphaLISA SureFire Ultra p-ERK1/2)
# Assay type: cell-based
# reported conditions: Homo sapiens; PC-9 cells (EGFR Ex19Del), 1 hour incubation, AlphaLISA p-ERK1/2; read-out: SOS1 pERK IC50

Inquiry: Look up IC50: C[C@@H](Nc1nc(Cl)nc2c1CN(C1CCOCC1)C2=O)c1cc(N)cc(C(F)(F)F)c1 [Example 30]
Reply text: > 1000 nM

Inquiry: Look up IC50: C[C@@H](Nc1nc(Cl)nc2c1CN(C(=O)C13CC(C1)C3)CC2)c1cc(N)cc(C(F)(F)F)c1 [Example 211]
Reply text: > 1000 nM

Inquiry: Look up IC50: C[C@@H](Nc1nc(Cl)nc2c1CN(C(=O)C1(C#N)CCN(C)CC1)C2)c1cccc(C(F)F)c1F [Example 299]
Reply text: < 1000 nM

Inquiry: Look up IC50: C[C@@H](Nc1nc(Cl)nc2c1CN(C(=O)N1CC3CNCC(C1)O3)C2)c1cccc(C(F)F)c1F [Example 398]
Reply text: > 1000 nM

Inquiry: Look up IC50: CNCc1ccccc1-c1cnc(C(C)Nc2nc(Cl)nc3c2CN(C(=O)N2CCOCC2)C3)s1 (stereo not drawn) [Example 31]
Reply text: > 1000 nM

Inquiry: Look up IC50: C[C@@H](Nc1nc(Cl)nc2c1CN(C(=O)C1CCC1)CC2)c1cc(N)cc(C(F)(F)F)c1 [Example 209]
Reply text: > 1000 nM

Inquiry: Look up IC50: COC1(C(=O)N2Cc3nc(Cl)nc(N[C@H](C)c4cccc(C(F)F)c4F)c3C2)CCN(CC(F)(F)F)CC1 [Example 344]
Reply text: < 1000 nM

Inquiry: Look up IC50: COC1CC(N)(C(=O)N2Cc3nc(Cl)nc(N[C@H](C)c4cccc(C(F)F)c4F)c3C2)C1 (stereo partly drawn) [Example 289]
Reply text: < 1000 nM

Inquiry: Look up IC50: CNCc1ccccc1-c1ccc(C(C)Nc2nc(Cl)nc3c2CN(C(=O)N2CCOCC2)C3)s1 (stereo not drawn) [Example 39]
Reply text: < 1000 nM

Inquiry: Look up IC50: COC1(C(=O)N2Cc3nc(Cl)nc(N[C@H](C)c4cccc(C(F)F)c4F)c3C2)CCOCC1 [Example 330]
Reply text: < 1000 nM

Inquiry: Look up IC50: Cc1nc(N[C@H](C)c2cccc(C(F)F)c2F)c2c(n1)N(C)C(=O)N(C1CCN(C)CC1)C2 [Example 445]
Reply text: > 1000 nM

Inquiry: Look up IC50: COC1(C(=O)N2Cc3nc(Cl)nc(N[C@H](C)c4cccc(C(F)F)c4F)c3C2)CCN(CCF)CC1 [Example 343]
Reply text: < 1000 nM

Inquiry: Look up IC50: C[C@@H](Nc1nc(Cl)nc2c1CN(C(=O)c1ccccn1)CC2)c1cc(N)cc(C(F)(F)F)c1 [Example 247]
Reply text: > 1000 nM

Inquiry: Look up IC50: C[C@@H](Nc1nc(Cl)nc2c1CN(C(=O)C1CN(C3COC3)C1)C2)c1cccc(C(F)F)c1F [Example 339]
Reply text: < 1000 nM

Inquiry: Look up IC50: O=C(N1CCOCC1)N1Cc2nc(Cl)nc(NC(CF)c3cccc(C(F)(F)CO)c3)c2C1 (stereo not drawn) [Example 463]
Reply text: > 1000 nM

Inquiry: Look up IC50: C[C@@H](Nc1nc(Cl)nc2c1CN(C(=O)C1COCCN1)C2)c1cccc(C(F)(F)F)c1 (stereo partly drawn) [Example 276]
Reply text: > 1000 nM

Inquiry: Look up IC50: C[C@@H](Nc1nc(CNC2CC2)nc2c1CN(C(=O)N1CCOCC1)C2)c1cccc(C(F)F)c1F [Example 508]
Reply text: > 1000 nM

Inquiry: Look up IC50: C[C@@H](Nc1nc(Cl)nc2c1CN(C(=O)[C@@H]1C[C@@H]1C#N)CC2)c1cc(N)cc(C(F)(F)F)c1 [Example 205]
Reply text: < 1000 nM

Inquiry: Look up IC50: C[C@@H](Nc1nc(C2CN(C)C2)nc2c1CN(C(=O)N1CCOCC1)C2)c1cccc(C(F)F)c1F [Example 447]
Reply text: > 1000 nM

Inquiry: Look up IC50: C[C@@H](Nc1nc(Cl)nc2c1CN(C(=O)C13CCN(CC1)CC3)C2)c1cccc(C(F)F)c1F [Example 313]
Reply text: < 1000 nM

Inquiry: Look up IC50: COC1(C(=O)N2Cc3nc(Cl)nc(N[C@H](C)c4cccc(C(F)F)c4F)c3C2)CCN(C2COC2)CC1 [Example 325]
Reply text: < 1000 nM

Inquiry: Look up IC50: C[C@@H](Nc1nc(Cl)nc2c1CN(C(=O)N1CCNc3ncncc31)C2)c1cc(N)cc(C(F)(F)F)c1 [Example 354]
Reply text: < 1000 nM

Inquiry: Look up IC50: COc1cncc(C(=O)N2CCc3nc(Cl)nc(N[C@H](C)c4cc(N)cc(C(F)(F)F)c4)c3C2)n1 [Example 237]
Reply text: > 1000 nM

Inquiry: Look up IC50: C[C@@H](Nc1nc(Cl)nc2c1CN(C(=O)N1CCNc3ncccc31)C2)c1cccc(C(F)(F)F)c1 [Example 370]
Reply text: < 1000 nM

Inquiry: Look up IC50: C[C@@H](Nc1nc(Cl)nc2c1CN(C(=O)c1ccccn1)C2)c1cc(N)cc(C(F)(F)F)c1 [Example 65]
Reply text: < 1000 nM

Inquiry: Look up IC50: CC(CO)c1cccc(C(C)Nc2nc(Cl)nc3c2CN(C(=O)N2CCOCC2)C3)c1 (stereo not drawn) [Example 500]
Reply text: > 1000 nM

Inquiry: Look up IC50: C[C@@H](Nc1nc(Cl)nc2c1CN(C(=O)N1CCNC(=O)C1)C2)c1cccc(C(F)F)c1F [Example 403]
Reply text: < 1000 nM

Inquiry: Look up IC50: COC1(C(=O)N2Cc3nc(Cl)nc(N[C@H](C)c4cccc(C(F)(F)CN)c4)c3C2)CCOCC1 [Example 525]
Reply text: < 1000 nM

Inquiry: Look up IC50: C[C@@H](Nc1nc(Cl)nc2c1CN(C(=O)C1(F)CCN(C)CC1)C2)c1cccc(C(F)F)c1F [Example 326]
Reply text: < 1000 nM

Inquiry: Look up IC50: C[C@@H](Nc1nc(Cl)nc2c1CN(C(=O)c1cc(-n3ccnc3)ccn1)C2)c1cc(N)cc(C(F)(F)F)c1 [Example 104]
Reply text: < 1000 nM
